Every entry's value here was drawn from ChEMBL document CHEMBL1681706.

# system under test: hERG (KCNH2) (Homo sapiens, UniProt Q12809)
# Sequence (Q12809 whole entry): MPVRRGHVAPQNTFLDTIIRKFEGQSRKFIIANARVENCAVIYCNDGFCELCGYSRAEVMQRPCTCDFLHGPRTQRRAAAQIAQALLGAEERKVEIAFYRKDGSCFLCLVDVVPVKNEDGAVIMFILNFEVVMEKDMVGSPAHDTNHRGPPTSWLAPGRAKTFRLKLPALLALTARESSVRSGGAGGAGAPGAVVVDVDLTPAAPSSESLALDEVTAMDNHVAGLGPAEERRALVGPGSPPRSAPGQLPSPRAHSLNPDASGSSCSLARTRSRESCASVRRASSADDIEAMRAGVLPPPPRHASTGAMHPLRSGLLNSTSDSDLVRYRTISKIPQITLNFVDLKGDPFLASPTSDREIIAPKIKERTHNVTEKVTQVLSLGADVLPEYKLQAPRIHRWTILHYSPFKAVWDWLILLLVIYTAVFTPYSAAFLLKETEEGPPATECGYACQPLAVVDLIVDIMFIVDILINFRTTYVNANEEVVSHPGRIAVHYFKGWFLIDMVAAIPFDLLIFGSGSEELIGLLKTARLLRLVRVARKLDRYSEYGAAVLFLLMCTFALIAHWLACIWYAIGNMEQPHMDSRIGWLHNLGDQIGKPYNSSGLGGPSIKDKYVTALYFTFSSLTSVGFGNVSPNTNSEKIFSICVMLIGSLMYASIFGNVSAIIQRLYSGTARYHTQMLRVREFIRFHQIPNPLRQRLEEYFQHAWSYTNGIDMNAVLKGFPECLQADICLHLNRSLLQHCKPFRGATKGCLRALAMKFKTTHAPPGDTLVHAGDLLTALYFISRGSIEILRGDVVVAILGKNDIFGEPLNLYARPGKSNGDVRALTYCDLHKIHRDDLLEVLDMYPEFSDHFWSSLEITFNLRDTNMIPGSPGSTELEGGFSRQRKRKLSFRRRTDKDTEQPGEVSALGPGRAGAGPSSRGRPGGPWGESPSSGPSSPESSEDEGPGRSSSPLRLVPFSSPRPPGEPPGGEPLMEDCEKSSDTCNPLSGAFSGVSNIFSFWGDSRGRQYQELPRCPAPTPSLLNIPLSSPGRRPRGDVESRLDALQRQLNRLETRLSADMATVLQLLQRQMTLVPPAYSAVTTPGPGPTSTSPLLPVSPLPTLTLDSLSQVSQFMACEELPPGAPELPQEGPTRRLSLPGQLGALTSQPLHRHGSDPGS
# assay overview: Displacement of dofetilide from human ERG at 10 uM
# condition context: probe dofetilide
// values below are reported inhibition at 10 µM
measurement kind: inhibition at 10 µM (%)

>  <compound>
CC(C)[C@]1(C(=O)N2C[C@@H]3C[C@H]2CN3C(=O)CCC(F)(F)F)CC[C@@H](NC2CCOCC2)C1

>  <measurement kind>
inhibition at 10 µM

>  <reported result>
1

$$$$
>  <compound>
CC(C)COC(=O)N1C[C@@H]2C[C@H]1CN2C(=O)[C@@]1(C(C)C)CC[C@@H](NC2CCOCC2F)C1 (stereo not given in full)

>  <measurement kind>
inhibition at 10 µM

>  <reported result>
0

$$$$
>  <compound>
CO[C@@H]1COCC[C@@H]1N[C@@H]1CC[C@@](C(=O)N2C[C@@H]3C[C@H]2CN3C(=O)OC(C)(C)C)(C(C)C)C1

>  <measurement kind>
inhibition at 10 µM

>  <reported result>
0

$$$$
>  <compound>
CC(C)[C@]1(C(=O)N2C[C@@H]3C[C@H]2CN3C(=O)NC(C)(C)C)CC[C@@H](NC2CCOCC2F)C1 (stereo not given in full)

>  <measurement kind>
inhibition at 10 µM

>  <reported result>
0

$$$$
>  <compound>
CC(=O)N1C[C@@H]2C[C@H]1CN2C(=O)[C@@]1(C(C)C)CC[C@@H](NC2CCOCC2)C1

>  <measurement kind>
inhibition at 10 µM

>  <reported result>
0

$$$$
>  <compound>
CO[C@@H]1COCC[C@@H]1N[C@@H]1CC[C@@](C(=O)N2C[C@@H]3C[C@H]2CN3C(=O)C2CCCC2)(C(C)C)C1

>  <measurement kind>
inhibition at 10 µM

>  <reported result>
6.7

$$$$
>  <compound>
CC(C)[C@]1(C(=O)N2C[C@@H]3C[C@H]2CN3C(=O)C(C)(C)C)CC[C@@H](NC2CCOCC2)C1

>  <measurement kind>
inhibition at 10 µM

>  <reported result>
2

$$$$
>  <compound>
CO[C@@H]1COCC[C@@H]1N[C@@H]1CC[C@@](C(=O)N2C[C@@H]3C[C@H]2CN3C(=O)c2ccccc2)(C(C)C)C1

>  <measurement kind>
inhibition at 10 µM

>  <reported result>
7.8

$$$$
>  <compound>
CC(C)[C@]1(C(=O)N2C[C@@H]3C[C@H]2CN3C(=O)CCC(F)(F)F)CC[C@@H](NC2CCOCC2F)C1 (stereo not given in full)

>  <measurement kind>
inhibition at 10 µM

>  <reported result>
5

$$$$
>  <compound>
CC(C)[C@]1(C(=O)N2C[C@@H]3C[C@H]2CN3C(=O)CC2CCCC2)CC[C@@H](NC2CCOCC2F)C1 (stereo not given in full)

>  <measurement kind>
inhibition at 10 µM

>  <reported result>
3

$$$$
>  <compound>
CC(CC(=O)N1C[C@@H]2C[C@H]1CN2C(=O)[C@@]1(C(C)C)CC[C@@H](NC2CCOCC2F)C1)C(F)(F)F (stereo not given in full)

>  <measurement kind>
inhibition at 10 µM

>  <reported result>
0

$$$$
>  <compound>
CC(C)[C@]1(C(=O)N2C[C@@H]3C[C@H]2CN3C(=O)C2CCC2)CC[C@@H](NC2CCOCC2F)C1 (stereo not given in full)

>  <measurement kind>
inhibition at 10 µM

>  <reported result>
17

$$$$
>  <compound>
CC(C)[C@]1(C(=O)N2C[C@@H]3C[C@H]2CN3C(=O)CC(C)(C)C)CC[C@@H](NC2CCOCC2)C1

>  <measurement kind>
inhibition at 10 µM

>  <reported result>
5.7

$$$$
>  <compound>
CC(C)[C@]1(C(=O)N2C[C@@H]3C[C@H]2CN3C(=O)C2CCCC2)CC[C@@H](NC2CCOCC2F)C1 (stereo not given in full)

>  <measurement kind>
inhibition at 10 µM

>  <reported result>
3

$$$$
>  <compound>
CC(OC(=O)N1C[C@@H]2C[C@H]1CN2C(=O)[C@@]1(C(C)C)CC[C@@H](NC2CCOCC2F)C1)C(F)(F)F (stereo not given in full)

>  <measurement kind>
inhibition at 10 µM

>  <reported result>
3

$$$$
